For each record, write down the corresponding viability decrease (inhibition).
TEST PROTOCOL: CellTiter-Glo luminescent readout of SW480 viability loss, NPC library primary (AID 1117343)
STUDY CONDITIONS: CellTiter-Glo luminescence; at 20 µM (top of the series)
Activity calls are given as the source filed them.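 The calls were made as follows: active = compounds that lower viability of the colon cancer cells in the luminescence readout, with no numeric limit stated; inactive = the rest.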

Notebook: CC(=O)O[C@@H]1CC2C3CCc4cc(OC(=O)c5ccccc5)ccc4C3CCC2(C)[C@H]1OC(C)=O (some centres not stated) , viability decrease (inhibition) read as 47% (inactive)

Notebook: `CC(=O)Nc1ccc(S(=O)(=O)Nc2cc(C)on2)cc1` , viability decrease (inhibition) read as -14.4% (inactive)

Notebook: `COC(=O)[C@H]1[C@H]2C[C@@H]3c4[nH]c5cc(OC)ccc5c4CCN3C[C@H]2C[C@@H](OC(=O)COc2ccc(OC)cc2)[C@@H]1OC` , viability decrease (inhibition) read as -12.3% (inactive)

Notebook: `COc1ccc2nc(SCc3ncc(C)c(OC)c3C)[nH]c2c1` , viability decrease (inhibition) read as -12.2% (inactive)

Notebook: `O=C(/C=C/c1ccc(O)c(O)c1)O[C@@H]1C[C@@](OC(=O)/C=C/c2ccc(O)c(O)c2)(C(=O)O)C[C@@H](O)[C@@H]1O` , viability decrease (inhibition) read as 6.5% (inactive)

Notebook: `Nc1ccc2c(c1)CN1C(=O)c3ccccc3C1=N2` , viability decrease (inhibition) read as 79.4% (active)

Notebook: CC(C)NCC(O)c1cc(O)cc(O)c1 (configuration not stated) , viability decrease (inhibition) read as -1.6% (inactive)

Notebook: N#C/C(=C1\SCC(c2ccccc2Cl)S1)n1ccnc1 (configuration not stated) , viability decrease (inhibition) read as 85.4% (active)

Notebook: `COC(=O)/C=C\C(=O)OC` , viability decrease (inhibition) read as 5.9% (inactive)

Notebook: `Cc1cn([C@@H]2O[C@H](CO)[C@@H](O)[C@H]2F)c(=O)[nH]c1=O` , viability decrease (inhibition) read as 3.1% (inactive)

Notebook: `N=C(N)c1ccc(OCCCCCOc2ccc(C(=N)N)cc2)cc1` , viability decrease (inhibition) read as 60.9% (active)

Notebook: `CCCCCCCCCCCCCCCC[N+](C)(C)Cc1ccccc1` , viability decrease (inhibition) read as 101% (active)
